measurement description: Pharmacokinetic interactions between QPD and lopinavir in rats
Assay type: in vivo
setup conditions: male, Sprague-Dawley, rat, plasma, po, 160 mg/kg, AUC(0-inf) of lopinavir, rats, water + lopinavir 160 mg/kg i.g. (control group)
measured attribute: AUC(0-inf) (ng·h/mL)
Write down the numeric answer in ng·h/mL and omit the unit.

Suppose we examine the molecule Cc1cccc(C)c1OCC(=O)N[C@@H](Cc1ccccc1)[C@@H](O)C[C@H](Cc1ccccc1)NC(=O)[C@H](C(C)C)N1CCCNC1=O [lopinavir] ; what AUC(0-inf) value has been reported? 6090

---

measurement description: Pharmacokinetic interactions between QPD and lopinavir in rats
Format: in vivo
setup conditions: male, Sprague-Dawley, rat, plasma, po, 160 mg/kg
measured attribute: Tmax
In your response, the unit should come after the numeric value.

Suppose we examine the molecule Cc1cccc(C)c1OCC(=O)N[C@@H](Cc1ccccc1)[C@@H](O)C[C@H](Cc1ccccc1)NC(=O)[C@H](C(C)C)N1CCCNC1=O [lopinavir] ; what Tmax value has been reported? 8 h
